Tested on: KCL-22
testName: cell viability (% survival relative to DMSO control, bortezomib = 0%); higher = less cytotoxic
conditionParameters: 1 nM; 72 h
Structures can show the parent of a compound that is named as a salt.
cell viability: recorded values

| molecule | outputUnit | cell viability |
| --- | --- | --- |
| Cc1nc(-c2ccc(OCC(C)C)c(C#N)c2)sc1C(=O)O [Febuxostat] | % | 92.5 |
| c1ccc2nc(-c3nnc4sc(-c5cnccn5)nn34)ccc2c1 | % | 97.3 |
| Cc1nnc(-c2ccc(N3CCC(Oc4ccccc4C(F)(F)F)CC3)nn2)s1 [MF-438] | % | 103 |
| Cn1cc(C[C@@H](N)C(=O)O)c2ccccc21 [Indoximod] | % | 109 |
| NS(=O)(=O)c1ccc(S(=O)(=O)Nc2cccc3c(Cl)c[nH]c23)cc1 [Indisulam] | % | 102 |
| N#Cc1ccc(C2CCCc3cncn32)cc1 (centres undefined) [Fadrozole] | % | 115 |
| NCc1ccc(S(N)(=O)=O)cc1 [4-Homosulfanilamide] | % | 99.7 |
| CC(C)(Cc1ccccc1)NCC(O)c1ccc(O)c(NS(C)(=O)=O)c1 (centres undefined) [Zinterol hydrochloride] | % | 96.1 |
| CN(C)CCNC(=O)c1cccn2c(=O)c3cc4ccccc4cc3nc12 [Bmh-21] | % | 115 |

---

Tested on: myeloid leukemia patient primary cells Pat.1
testName: area under dose-response curve (viability, 1 nM-10 uM) (fraction (0-1)); higher = more sensitive
conditionParameters: 72 h
Parameter area under dose-response curve: see the listing below.
parameter: area under dose-response curve

| compound | parameter | observedValue |
| --- | --- | --- |
| c1ccc2c(c1)SCc1c-2[nH]c2ccccc12 | area under dose-response curve | 0.132 |
| Clc1cc(Cl)c(OCC#CI)cc1Cl [Haloprogin] | area under dose-response curve | 0.258 |
| NS(=O)(=O)c1ccc(S(=O)(=O)Nc2cccc3c(Cl)c[nH]c23)cc1 [Indisulam] | area under dose-response curve | 0.128 |
| CC(C)c1onc(-c2c(Cl)cccc2Cl)c1COc1ccc(/C=C/c2cccc(C(=O)O)c2)c(Cl)c1 [GW 4064] | area under dose-response curve | < 0.0301 |
| C=C1NC(=O)c2cc(CN(C)c3ccc(C(=O)N[C@@H](CCC(=O)O)C(=O)O)s3)ccc2N1 [Raltitrexed] | area under dose-response curve | < 0.0301 |
| Oc1ncc(F)c(O)n1 [5-fluorouracil] | area under dose-response curve | < 0.0301 |
| O=c1[nH]c(=O)n([C@H]2C[C@H](O)[C@@H](CO)O2)cc1I [Idoxuridine] | area under dose-response curve | < 0.0301 |
| O=C(Cc1cccc(OC(F)(F)F)c1)Nc1ccc(CCCCc2nnc(NC(=O)Cc3ccccn3)s2)nn1 [CB-839] | area under dose-response curve | < 0.0301 |

---

Form field: cell viability (one value per entry).
Tested on: KCL-22
testName: cell viability (% survival relative to DMSO control, bortezomib = 0%); higher = less cytotoxic
conditionParameters: 10000 nM; 72 h

| compound | outputUnit | cell viability |
| --- | --- | --- |
| N#Cc1ccc(C2CCCc3cncn32)cc1 (stereo not drawn) | % | 103 |
| CC(C)c1ccc2c(c1)c(SC(C)(C)C)c(CC(C)(C)C(=O)O)n2Cc1ccc(Cl)cc1 | % | 39.1 |
| Fc1ccc(CNc2ncnc3ccc(F)cc23)cc1 | % | 61.9 |
| O=c1oc2c(cc1O)oc(=O)c1cc(O)c(O)c(O)c12 | % | 112 |
| CN(C)C(=N)NC(=N)N | % | 88.1 |
| NS(=O)(=O)c1ccc(S(=O)(=O)Nc2cccc3c(Cl)c[nH]c23)cc1 | % | 19 |
| OC[C@H]1OC(O)C[C@@H](O)[C@@H]1O (stereo partly drawn) | % | 104 |
| C=C1NC(=O)c2cc(CN(C)c3ccc(C(=O)N[C@@H](CCC(=O)O)C(=O)O)s3)ccc2N1 | % | 22 |
| O=C(Oc1ccc([N+](=O)[O-])cc1)N1CCC(C(O)(c2ccc3c(c2)OCO3)c2ccc3c(c2)OCO3)CC1 | % | 92.3 |
| CC(=O)N[C@@H](CS)C(=O)O | % | 97.6 |
| COc1cc(/C=C/c2ccc(OC)cc2OC)cc(OC)c1 | % | 104 |
| COc1cc(C2Oc3cc(C4Oc5cc(O)cc(O)c5C(=O)C4O)ccc3OC2CO)ccc1O (stereo not drawn) | % | 95.1 |
| NCc1ccc(S(N)(=O)=O)cc1 [4-Homosulfanilamide] | % | 106 |

---

Reported cell viability is given for each of the following compounds.
Tested on: HL-60
testName: cell viability (% survival relative to DMSO control); higher = less cytotoxic
conditionParameters: 0.1 µM; 72 h; co-treatment: pictilisib 100 nM

| compound | cell viability / % |
| --- | --- |
| NCc1ccc(-c2cccnc2)s1 [(5-Pyrid-3-YLTHIEN-2-YL)METHYLAMINE] | 113 |
| Cn1cc(C[C@@H](N)C(=O)O)c2ccccc21 [Indoximod] | 120 |
| CCCCC/C=C\C/C=C\C/C=C\C/C=C\CCCC(=O)C(F)(F)F [Arachidonyl trifluoromethyl ketone] | 102 |
| CC(C)c1ccc2c(c1)c(SC(C)(C)C)c(CC(C)(C)C(=O)O)n2Cc1ccc(Cl)cc1 [MK-886] | 109 |
| CN(C)C(=N)NC(=N)N [Metformin] | 120 |
| C=C1NC(=O)c2cc(CN(C)c3ccc(C(=O)N[C@@H](CCC(=O)O)C(=O)O)s3)ccc2N1 [Raltitrexed] | 51.8 |
| O=C(Cc1cccc(OC(F)(F)F)c1)Nc1ccc(CCCCc2nnc(NC(=O)Cc3ccccn3)s2)nn1 [CB-839] | 78.3 |
| OCCN(CCO)c1nc(N2CCCCC2)c2nc(N(CCO)CCO)nc(N3CCCCC3)c2n1 [Dipyridamole] | 105 |
| O=C(CCl)N(CCCNC(=O)C(F)(F)F)c1ccc([N+](=O)[O-])cc1 [ML175] | 98.5 |
| CN(C)C(=O)n1nnnc1Cc1ccc(-c2ccccc2)cc1 | 100 |
| CCCCCCCCCCCCC/C=C/[C@@H](O)[C@H](CO)N(C)C [N,N-Dimethylsphingosine] | 106 |
| CC(C)(F)C[C@H](N[C@@H](c1ccc(-c2ccc(S(C)(=O)=O)cc2)cc1)C(F)(F)F)C(=O)NC1(C#N)CC1 [Odanacatib] | 94.9 |
| Cn1c2cc(S(C)=O)sc2c2cnn(Cc3cccc(N)c3)c(=O)c21 (centres undefined) [TEPP-46] | 112 |
| O=c1oc2c(cc1O)oc(=O)c1cc(O)c(O)c(O)c12 [Galloflavin] | 94.1 |
| CC(C)(CS(=O)(=O)[O-])NC(=O)CC[N+](C)(C)CCO | 107 |
| CN(C)CCNC(=O)c1cccn2c(=O)c3cc4ccccc4cc3nc12 [Bmh-21] | 104 |
| CC(=O)N[C@@H](CS)C(=O)O [Acetylcysteine] | 106 |
| O=C(Oc1ccc([N+](=O)[O-])cc1)N1CCC(C(O)(c2ccc3c(c2)OCO3)c2ccc3c(c2)OCO3)CC1 [JZL184] | 97.2 |
| N[C@@H](CCC(=O)N[C@@H](CS)C(=O)NCC(=O)O)C(=O)O [Glutathione] | 86.3 |

---

System: HL-60
testName: cell viability (% survival relative to DMSO control); higher = less cytotoxic
conditionParameters: 10 µM; 72 h; co-treatment: GSK2194069 100 nM
Where a name gives a salt, the structure may show the parent alone.

| compound | outputUnit | cell viability |
| --- | --- | --- |
| COc1ccc2c(c1)c(CC(=O)O)c(C)n2C(=O)c1ccc(Cl)cc1 | % | 89.1 |
| CC(C)(CCCCCCCCCCC(C)(C)CC(=O)O)CC(=O)O | % | 93.2 |
| Cc1[nH]n(-c2ccccc2)c(=O)c1C1(C(F)(F)F)C(=O)N(c2ccccc2)C2=C1C(=O)CC(C)(C)C2 (configuration not stated) | % | 97.8 |
| O=C1N[C@@H]2[C@@H](O)[C@@H](O)[C@H](O)[C@@H](CO)N2C1=O | % | 91.9 |
| Cl.OC[C@H]1NC[C@H](O)[C@@H](O)[C@H]1O | % | 94.8 |
| Cl.NC1=CCCN1Cc1nc(O)nc(O)c1Cl | % | 88 |
| Cn1c2cc(S(C)=O)sc2c2cnn(Cc3cccc(N)c3)c(=O)c21 (configuration not stated) | % | 101 |
| O=C(c1c2ccccc2cc2ccccc12)N1CCC(N2CCC[C@@H](C(=O)N3CCOCC3)C2)CC1 | % | 95.7 |
| COc1cc(C2Oc3cc(C4Oc5cc(O)cc(O)c5C(=O)C4O)ccc3OC2CO)ccc1O (configuration not stated) | % | 97.3 |
| CC(C)c1ccc2c(c1)c(SC(C)(C)C)c(CC(C)(C)C(=O)O)n2Cc1ccc(Cl)cc1 | % | 94.4 |
| CC(C)(CS(=O)(=O)[O-])NC(=O)CC[N+](C)(C)CCO | % | 99.7 |
| O=C(/C=C/c1cccnc1)NCCCCC1CCN(C(=O)c2ccccc2)CC1 | % | 1.09 |
| CC(C)(Cc1ccccc1)NCC(O)c1ccc(O)c(NS(C)(=O)=O)c1 (configuration not stated) [Zinterol hydrochloride] | % | 94.6 |
| O=C(CCl)N(CCCNC(=O)C(F)(F)F)c1ccc([N+](=O)[O-])cc1 | % | -1.73 |
| O=[As]O[As]=O (configuration not stated) [Arsenic trioxide] | % | 87.1 |
| Nc1nc(O)c2c(CCc3ccc(C(=O)N[C@@H](CCC(=O)O)C(=O)O)cc3)c[nH]c2n1 | % | 32.2 |
| N=C(N)c1ccc(N=NNc2ccc(C(=N)N)cc2)cc1 | % | 102 |

Entry source: the supplement of paper PMC8671470
